# System: HEK-293T
# Procedure Text: Multiplex assay against HEK293T
# Assay type: toxicity, cell-based
# Condition Label: human, 48 h, 10 µM, compound concentration 10 uM, replicate 2
# Population Mitochondria Different-Phenotype (%) binned as group A = under 30%, group B = from 30% up to 50%, group C = 50% and over

Consider the worked cases shown below.
[[record]]
compound = "N#Cc1c(N)nc(SCc2csc(-c3ccc(Cl)cc3)n2)c(C#N)c1-c1ccc(OCCO)cc1"
class = "group C"

[[record]]
compound = "CNC[C@H](O)c1ccc(O)c(O)c1 [EPINEPHRINE]"
class = "group B"

[[record]]
compound = "CN(C)CCCc1cc(C(=O)Nc2ccc(-c3ccncc3)cc2)ccc1O.Cl.Cl"
class = "group B"

[[record]]
compound = "Cc1ccc(/C(=C\\CN2CCCC2)c2ccccn2)cc1"
class = "group B"

[[record]]
compound = "CCCC(CCC)C(=O)O"
class = "group A"

[[record]]
compound = "CCNC1(C(N)=O)CCN(c2ncnc3c2nc(-c2ccccc2Cl)n3-c2ccc(Cl)cc2)CC1"
class = "group C"

[[record]]
compound = "O=C(NCC(=O)N1CC[C@H](N[C@H]2CC[C@@](O)(c3ccc(-c4ncccn4)cn3)CC2)C1)c1cccc(C(F)(F)F)c1"
class = "group B"

[[record]]
compound = "CSCC[C@H](NC=O)C(=O)N[C@@H](CC(C)C)C(=O)N[C@@H](Cc1ccccc1)C(=O)O"
class = "group A"


Hi there! Could you help me figure out the category for `COc1cc(C(=O)N(CCCc2ccccc2)Cc2ccc(CC(=O)O)cc2)cc(OC)c1C` please? group B

###

Property: Population Healthy Nuclei (%); scope: individual molecules
# Tested on: HEK-293T
# Procedure Text: Multiplex assay against HEK293T
# Assay type: toxicity, cell-based
# Condition Label: human, 48 h, 1 µM, compound concentration 1 uM, replicate 2
Reply numerically in %, unit not repeated.

Solved cases (5 shown):
[[record]]
molecule = "CN(C)CCCc1cc(C(=O)Nc2ccc(-c3ccncc3)cc2)ccc1O.Cl.Cl"
measurement = 75

[[record]]
molecule = "Cc1ccc(-c2ccc(F)cc2COc2ccc(CCC(=O)O)cc2)cc1"
measurement = 77

[[record]]
molecule = "CC1(COc2ccc3c(c2)ncn3-c2ccc3cccc(N4CCC(N)CC4)c3n2)COC1"
measurement = 70

[[record]]
molecule = "CCCC(CCC)C(=O)O"
measurement = 81

[[record]]
molecule = "COc1ccccc1N1CCN(CCCCNC(=O)c2ccc3ccccc3c2)CC1.Cl"
measurement = 78


Lookup result for `Oc1c(CN2CCN(c3ccccn3)CC2)cc(Cl)c2cccnc12` ; measured Population Healthy Nuclei (%): 83

Briefly, Population Healthy Nuclei (%) measured for Cl.Clc1ccc2nsnc2c1NC1=NCCN1 [TIZANIDINE HYDROCHLORIDE] : 79

Reported Population Healthy Nuclei (%) ( Cc1ccc(C(C)(O)c2nc3ccccc3s2)c(C)c1 (centres undefined) ) = 78

Query `CCCn1c(=O)c2[nH]c(C3CCCC3)nc2n(CCC)c1=O` yields Population Healthy Nuclei (%) of 80

Population Healthy Nuclei (%) reported for this molecule `COc1cc(NC(=O)CCN2CCC(OC(=O)Nc3ccccc3-c3ccccc3)CC2)c(Cl)cc1CNC[C@H](O)c1ccc(O)c2[nH]c(=O)ccc12` : 79

Sample `Cc1ccc(/C(=C\CN2CCCC2)c2ccccn2)cc1` ; Population Healthy Nuclei (%) observed: 84

// recorded Population Healthy Nuclei (%) for `CCNC1(C(N)=O)CCN(c2ncnc3c2nc(-c2ccccc2Cl)n3-c2ccc(Cl)cc2)CC1` : 82
